Recorded Kd, one value per entry.
target: CnCYP51 (lanosterol 14α-demethylase, CnCYP51-6×His) (Cryptococcus neoformans, UniProt J9VHT4)
Sequence (J9VHT4 entry or part of it): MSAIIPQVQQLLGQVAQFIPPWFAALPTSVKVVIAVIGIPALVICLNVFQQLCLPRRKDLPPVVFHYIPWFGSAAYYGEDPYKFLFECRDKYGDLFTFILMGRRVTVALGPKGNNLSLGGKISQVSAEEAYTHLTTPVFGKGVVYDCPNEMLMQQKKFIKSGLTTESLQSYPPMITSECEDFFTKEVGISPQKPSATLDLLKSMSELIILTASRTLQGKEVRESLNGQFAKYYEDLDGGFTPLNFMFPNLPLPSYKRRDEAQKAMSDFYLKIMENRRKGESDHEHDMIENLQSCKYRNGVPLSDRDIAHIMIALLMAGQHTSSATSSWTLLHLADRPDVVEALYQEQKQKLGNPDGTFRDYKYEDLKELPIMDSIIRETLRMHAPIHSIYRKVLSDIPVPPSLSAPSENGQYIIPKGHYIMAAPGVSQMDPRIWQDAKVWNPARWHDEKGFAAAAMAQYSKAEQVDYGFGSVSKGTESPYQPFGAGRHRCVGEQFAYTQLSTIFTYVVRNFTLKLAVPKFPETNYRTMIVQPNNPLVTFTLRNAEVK
Give the quantity in nM, number only.

Asked: Quick one: Kd for C[C@@H](c1ncncc1F)[C@](O)(Cn1cncn1)c1ccc(F)cc1F [VCZ, Voriconazole] ?
Given back: 390

Asked: Quick one: Kd for CC[C@@H]([C@H](C)O)n1ncn(-c2ccc(N3CCN(c4ccc(OC[C@@H]5CO[C@@](Cn6cncn6)(c6ccc(F)cc6F)C5)cc4)CC3)cc2)c1=O [PCZ, Posaconazole] ?
Given back: 200
